# Protocol Notes: protein stability index of a GFP-peptide fusion (yeast GPS) (PSI 1-4); higher = more stable; sorted into four equal gates, so the index is relative within each strain
# Experimental Setup: pdr5∆
Rule: protein stability index of 3 or more gives rule met; anything lower gives rule not met.

The examples below pair each entry with its known result.
polymer_sequence="RQPANTKIGAKRIHSVR [RPS8A]" assigned_label="rule met"
polymer_sequence="TSLATSAGQPNLLLSAS [ASC1]" assigned_label="rule not met"

Problem: Can RLLPNGSNKAQISIIDI [YML031W/NDC1] be said to have protein stability index at or above 3?
Result: rule met

Problem: Can ELLKSSLQKAGSKMEAK [AAR2] be said to have protein stability index at or above 3?
Result: rule met

Problem: Can LKQEIDRGLSIKLNGST [SNU114] be said to have protein stability index at or above 3?
Result: rule met

Problem: Can RLGEMERDCVIAYGASQ [RET1] be said to have protein stability index at or above 3?
Result: rule met

Problem: Can LIIDGQIIFGVVEKKTV [RPO21] be said to have protein stability index at or above 3?
Result: rule not met
